Please provide measured MIC50 for the entries that follow.
# Test system: Acinetobacter sp.
# Experiment: Antibacterial activity against Acinetobacter spp. by broth microdilution method
# Format: functional
Field format: number, assumed µg/mL, no unit text.

response.value for C[C@@H](O)[C@H]1C(=O)N2C(C(=O)O)=C(SCCNC=N)C[C@H]12 [IMIPENEM ANHYDROUS] (field: MIC50) = 2

Lab note: measured MIC50 of CN[C@@H]1[C@@H](O)[C@@H](O[C@@H]2[C@@H](O)[C@H](O[C@H]3OC(CNCCO)=CC[C@H]3N)[C@@H](N)C[C@H]2NC(=O)[C@@H](O)CCN)OC[C@]1(C)O [PLAZOMICIN] was 16

Looking up CN(C)c1cc(NC(=O)CNC(C)(C)C)c(O)c2c1C[C@H]1C[C@H]3[C@H](N(C)C)C(O)=C(C(N)=O)C(=O)[C@@]3(O)C(O)=C1C2=O [TIGECYCLINE] , I see its MIC50 listed as 2

###

Record form. Attribute: MIC90. Fill in for each entry.
# Tested on: Escherichia coli
# Experiment: Antibacterial activity against Escherichia coli by broth microdilution method
# Assay type: functional
Kindly answer with a numeric value in µg/mL, unit omitted.

NCC[C@H](O)C(=O)N[C@@H]1C[C@H](N)[C@@H](O[C@H]2O[C@H](CN)[C@@H](O)[C@H](O)[C@H]2O)[C@H](O)[C@H]1O[C@H]1O[C@H](CO)[C@@H](O)[C@H](N)[C@H]1O [AMIKACIN] has a reported MIC90 of 32

For this compound ( CN[C@@H]1[C@@H](O)[C@@H](O[C@@H]2[C@@H](O)[C@H](O[C@H]3OC(CNCCO)=CC[C@H]3N)[C@@H](N)C[C@H]2NC(=O)[C@@H](O)CCN)OC[C@]1(C)O [PLAZOMICIN] ), measured MIC90 is 2

The value of MIC90 measured for the compound C[C@@H](O)[C@H]1C(=O)N2C(C(=O)O)=C(SCCNC=N)C[C@H]12 [IMIPENEM ANHYDROUS] turned out to be 0.25

Sample CN(C)c1cc(NC(=O)CNC(C)(C)C)c(O)c2c1C[C@H]1C[C@H]3[C@H](N(C)C)C(O)=C(C(N)=O)C(=O)[C@@]3(O)C(O)=C1C2=O [TIGECYCLINE] ; MIC90 observed: 0.5

###

# Tested on: Acinetobacter sp.
# Experiment: Antibacterial activity against Acinetobacter spp. by broth microdilution method
# Type: functional
Readout Name: MIC50

The compound Nc1nc(/C(=N/O)C(=O)N[C@@H]2C(=O)N3C(C(=O)O)=C(/C=C4\CCN([C@@H]5CCNC5)C4=O)CS[C@H]23)ns1 [CEFTOBIPROLE] showed MIC50 equal to > 32 µg/mL

// field: MIC50; key: O=C(O)c1cn(C2CC2)c2cc(N3CCNCC3)c(F)cc2c1=O [CIPROFLOXACIN] ; value = > 16 µg/mL

MIC50 recorded for this compound, NCC[C@H](O)C(=O)N[C@@H]1C[C@H](N)[C@@H](O[C@H]2O[C@H](CN)[C@@H](O)[C@H](O)[C@H]2O)[C@H](O)[C@H]1O[C@H]1O[C@H](CO)[C@@H](O)[C@H](N)[C@H]1O [AMIKACIN] , is > 64 µg/mL
